- Assayed Target: Adenosine kinase (Homo sapiens) (UniProt P55263)
- Sequence (P55263 2-362 limits assumed): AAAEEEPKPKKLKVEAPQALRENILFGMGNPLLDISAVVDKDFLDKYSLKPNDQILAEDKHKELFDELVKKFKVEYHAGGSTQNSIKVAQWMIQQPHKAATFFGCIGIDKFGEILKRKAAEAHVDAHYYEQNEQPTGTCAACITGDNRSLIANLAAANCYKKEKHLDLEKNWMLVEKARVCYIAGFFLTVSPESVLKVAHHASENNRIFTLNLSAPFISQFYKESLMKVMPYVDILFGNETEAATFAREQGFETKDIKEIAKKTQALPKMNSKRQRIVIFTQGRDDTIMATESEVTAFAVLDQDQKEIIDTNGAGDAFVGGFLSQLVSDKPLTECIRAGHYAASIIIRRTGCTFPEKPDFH
Labelling: logIC50 reported below -0.3 becomes criterion met; at or above becomes criterion not met.

// known answers, use as guide
Nc1ncnc2c1c(Cl)cn2[C@@H]1O[C@H](CO)[C@@H](O)[C@H]1O	criterion met
C[C@H]1O[C@@H](n2cc(I)c3c(Cl)ncnc32)[C@H](O)[C@@H]1O	criterion met
CSc1ncnc2c1c(I)cn2[C@@H]1O[C@H](C)[C@@H](O)[C@H]1O	criterion met
NC[C@H]1O[C@@H](n2cc(I)c3c(N)ncnc32)[C@H](O)[C@@H]1O	criterion met
NC[C@H]1O[C@@H](n2cc(I)c3c(Cl)ncnc32)[C@H](O)[C@@H]1O	criterion met
[N-]=[N+]=NC[C@H]1O[C@@H](n2cc(Br)c3c(N)ncnc32)[C@H](O)[C@@H]1O	criterion met
CSc1cn([C@@H]2O[C@H](C)[C@@H](O)[C@H]2O)c2ncnc(N)c12	criterion not met

Read the next record carefully.
input: Quick check: does "COC[C@H]1O[C@@H](n2cc(I)c3c(N)ncnc32)[C@H](O)[C@@H]1O" have logIC50 under -0.3?
output: criterion not met

---

- Assayed Target: Adenosine kinase (Homo sapiens)
The reader will find reported logIC50 values listed item by item below.
Enter a number only.

logIC50 recorded for this compound, "CNc1ncnc2c1c(I)cn2[C@@H]1O[C@H](C)[C@@H](O)[C@H]1O" , is 0.0792

logIC50 recorded for this compound, "NC[C@H]1O[C@@H](n2cc(Br)c3c(N)ncnc32)[C@H](O)[C@@H]1O" , is -3.7

logIC50 recorded for this compound, "[N-]=[N+]=NC[C@H]1O[C@@H](n2cc(I)c3c(Cl)ncnc32)[C@H](O)[C@@H]1O" , is -2.05

logIC50 recorded for this compound, "Cc1cn([C@@H]2O[C@H](C)[C@@H](O)[C@H]2O)c2ncnc(Cl)c12" , is -0.272

logIC50 recorded for this compound, "C[C@H]1O[C@@H](n2cc(Br)c3c(Cl)ncnc32)[C@H](O)[C@@H]1O" , is -1.3

logIC50 recorded for this compound, "OC[C@H]1O[C@@H](n2cc(I)c3c(Cl)ncnc32)[C@H](O)[C@@H]1O" , is -1.62

logIC50 recorded for this compound, "[N-]=[N+]=NC[C@H]1O[C@@H](n2cc(I)c3c(N)ncnc32)[C@H](O)[C@@H]1O" , is -1.46

logIC50 recorded for this compound, "C[C@H]1O[C@@H](n2cc(C#N)c3c(N)ncnc32)[C@H](O)[C@@H]1O" , is -0.509

logIC50 recorded for this compound, "[N-]=[N+]=NC[C@H]1O[C@@H](n2cc(Br)c3c(Cl)ncnc32)[C@H](O)[C@@H]1O" , is -1

---

Lab note: logIC50 readings collected with Adenosine kinase (Homo sapiens) for the following compounds.
Enter a number only.

See these solved cases before continuing.
C[C@H]1O[C@@H](n2cc(I)c3c(S)ncnc32)[C@H](O)[C@@H]1O	0.813
Nc1ncnc2c1c(Br)cn2[C@@H]1O[C@H](CO)[C@@H](O)[C@H]1O	-0.921
CC[C@H]1O[C@@H](n2cc(I)c3c(N)ncnc32)[C@H](O)[C@@H]1O	-1.22
C=C[C@H]1O[C@@H](n2cc(I)c3c(N)ncnc32)[C@H](O)[C@@H]1O	-1

Proceed to the following item.
Let me check: "CSc1cn([C@@H]2O[C@H](C)[C@@H](O)[C@H]2O)c2ncnc(Cl)c12" , system Adenosine kinase (Homo sapiens), measured logIC50 is -1.16
